- EXPERIMENTAL_TARGET: T1, formyl peptide receptor 2 (FPR2) (UniProt P25090 1-351, limits assumed)
- T1 sequence (looked up): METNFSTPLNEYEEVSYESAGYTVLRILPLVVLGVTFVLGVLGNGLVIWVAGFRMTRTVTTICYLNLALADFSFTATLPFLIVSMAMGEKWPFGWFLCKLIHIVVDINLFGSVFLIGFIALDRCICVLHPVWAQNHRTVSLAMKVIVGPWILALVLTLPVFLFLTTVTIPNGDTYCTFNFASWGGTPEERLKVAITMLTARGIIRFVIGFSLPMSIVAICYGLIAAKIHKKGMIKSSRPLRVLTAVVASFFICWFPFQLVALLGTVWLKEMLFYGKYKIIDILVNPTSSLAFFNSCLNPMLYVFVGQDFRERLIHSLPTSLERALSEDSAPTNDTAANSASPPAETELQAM
- PROTOCOL_DESCRIPTION: cell-based or functional assay
RECORDED_ENDPOINT: EC50 for [Ca2+]

Indicate the recorded EC50 for [Ca2+] value for this binder: MRYWPM (HELM PEPTIDE1{M.R.Y.W.P.[dM].[am]}$$$$V2.0; N-terminus assumed; SMILES CSCC[C@H](N)C(=O)N[C@@H](CCCNC(=N)N)C(=O)N[C@@H](Cc1ccc(O)cc1)C(=O)N[C@@H](Cc1c[nH]c2ccccc12)C(=O)N1CCC[C@H]1C(=O)N[C@H](CCSC)C(N)=O) [peptide of SEQ ID NO 110]
< 10 nM

Indicate the recorded EC50 for [Ca2+] value for this binder: KMKYKPM (HELM PEPTIDE1{[ac].K.M.K.Y.K.P.[dM].[am]}$$$$V2.0; SMILES CSCC[C@H](NC(=O)[C@H](CCCCN)NC(C)=O)C(=O)N[C@@H](CCCCN)C(=O)N[C@@H](Cc1ccc(O)cc1)C(=O)N[C@@H](CCCCN)C(=O)N1CCC[C@H]1C(=O)N[C@H](CCSC)C(N)=O) [peptide of SEQ ID NO 67]
< 10 nM

Indicate the recorded EC50 for [Ca2+] value for this binder: RMRYYYM (HELM PEPTIDE1{[ac].R.M.R.Y.Y.Y.[dM].[am]}$$$$V2.0; SMILES CSCC[C@H](NC(=O)[C@H](CCCNC(=N)N)NC(C)=O)C(=O)N[C@@H](CCCNC(=N)N)C(=O)N[C@@H](Cc1ccc(O)cc1)C(=O)N[C@@H](Cc1ccc(O)cc1)C(=O)N[C@@H](Cc1ccc(O)cc1)C(=O)N[C@H](CCSC)C(N)=O) [peptide of SEQ ID NO 125]
< 10 nM

Indicate the recorded EC50 for [Ca2+] value for this binder: KWKYKYM (HELM PEPTIDE1{[ac].K.W.K.Y.K.Y.[dM].[am]}$$$$V2.0; SMILES CSCC[C@@H](NC(=O)[C@H](Cc1ccc(O)cc1)NC(=O)[C@H](CCCCN)NC(=O)[C@H](Cc1ccc(O)cc1)NC(=O)[C@H](CCCCN)NC(=O)[C@H](Cc1c[nH]c2ccccc12)NC(=O)[C@H](CCCCN)NC(C)=O)C(N)=O) [peptide of SEQ ID NO 36]
< 10 nM

Indicate the recorded EC50 for [Ca2+] value for this binder: PMRYKPM (HELM PEPTIDE1{[CCCC(=O)[*:2]].P.M.R.Y.K.P.[dM].[am]}$$$$V2.0; SMILES CCCC(=O)N1CCC[C@H]1C(=O)N[C@@H](CCSC)C(=O)N[C@@H](CCCNC(=N)N)C(=O)N[C@@H](Cc1ccc(O)cc1)C(=O)N[C@@H](CCCCN)C(=O)N1CCC[C@H]1C(=O)N[C@H](CCSC)C(N)=O) [peptide of SEQ ID NO 64]
< 10 nM

Indicate the recorded EC50 for [Ca2+] value for this binder: HMKYKVM (HELM PEPTIDE1{[ac].H.M.K.Y.K.V.[dM].[am]}$$$$V2.0; SMILES CSCC[C@H](NC(=O)[C@H](Cc1c[nH]cn1)NC(C)=O)C(=O)N[C@@H](CCCCN)C(=O)N[C@@H](Cc1ccc(O)cc1)C(=O)N[C@@H](CCCCN)C(=O)N[C@H](C(=O)N[C@H](CCSC)C(N)=O)C(C)C) [peptide of SEQ ID NO 22]
< 10 nM

Indicate the recorded EC50 for [Ca2+] value for this binder: MKYWPM (HELM PEPTIDE1{M.K.Y.W.P.[dM].[am]}$$$$V2.0; N-terminus assumed; SMILES CSCC[C@H](N)C(=O)N[C@@H](CCCCN)C(=O)N[C@@H](Cc1ccc(O)cc1)C(=O)N[C@@H](Cc1c[nH]c2ccccc12)C(=O)N1CCC[C@H]1C(=O)N[C@H](CCSC)C(N)=O) [peptide of SEQ ID NO 113]
< 10 nM

Indicate the recorded EC50 for [Ca2+] value for this binder: IKYKVM (HELM PEPTIDE1{[CCCCCCCC(=O)[*:2]].I.K.Y.K.V.[dM].[am]}$$$$V2.0; SMILES CCCCCCCC(=O)N[C@H](C(=O)N[C@@H](CCCCN)C(=O)N[C@@H](Cc1ccc(O)cc1)C(=O)N[C@@H](CCCCN)C(=O)N[C@H](C(=O)N[C@H](CCSC)C(N)=O)C(C)C)[C@@H](C)CC) [peptide of SEQ ID NO 137]
< 10 nM

Indicate the recorded EC50 for [Ca2+] value for this binder: WRYKPM (HELM PEPTIDE1{[ac].W.R.Y.K.P.[dM].[am]}$$$$V2.0; SMILES CSCC[C@@H](NC(=O)[C@@H]1CCCN1C(=O)[C@H](CCCCN)NC(=O)[C@H](Cc1ccc(O)cc1)NC(=O)[C@H](CCCNC(=N)N)NC(=O)[C@H](Cc1c[nH]c2ccccc12)NC(C)=O)C(N)=O) [peptide of SEQ ID NO 76]
< 10 nM

Indicate the recorded EC50 for [Ca2+] value for this binder: MRYKVM (HELM PEPTIDE1{[CCCC(=O)[*:2]].M.R.Y.K.V.[dM].[am]}$$$$V2.0; SMILES CCCC(=O)N[C@@H](CCSC)C(=O)N[C@@H](CCCNC(=N)N)C(=O)N[C@@H](Cc1ccc(O)cc1)C(=O)N[C@@H](CCCCN)C(=O)N[C@H](C(=O)N[C@H](CCSC)C(N)=O)C(C)C) [peptide of SEQ ID NO 15]
< 10 nM

Indicate the recorded EC50 for [Ca2+] value for this binder: MKYKVM (HELM PEPTIDE1{[ac].M.K.Y.K.V.[dM].[am]}$$$$V2.0; SMILES CSCC[C@H](NC(C)=O)C(=O)N[C@@H](CCCCN)C(=O)N[C@@H](Cc1ccc(O)cc1)C(=O)N[C@@H](CCCCN)C(=O)N[C@H](C(=O)N[C@H](CCSC)C(N)=O)C(C)C) [peptide of SEQ ID NO 18]
< 10 nM
